Let's look at some molecules and their measured pIC50.
- Measured on: CCR2 (Homo sapiens, UniProt P41597)
- Sequence (P41597 whole entry, species assumed): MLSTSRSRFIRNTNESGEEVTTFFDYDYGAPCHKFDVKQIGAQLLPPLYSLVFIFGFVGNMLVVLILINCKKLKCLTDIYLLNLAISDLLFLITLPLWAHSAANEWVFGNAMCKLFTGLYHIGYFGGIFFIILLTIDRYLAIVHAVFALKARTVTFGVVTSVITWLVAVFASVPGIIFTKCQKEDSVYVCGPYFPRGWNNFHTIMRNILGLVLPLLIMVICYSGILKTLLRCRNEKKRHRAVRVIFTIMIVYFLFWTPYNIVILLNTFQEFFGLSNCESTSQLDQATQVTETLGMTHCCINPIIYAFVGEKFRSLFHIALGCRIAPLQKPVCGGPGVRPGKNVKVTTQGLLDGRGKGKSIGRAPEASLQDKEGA
- Assay protocol: CCR2 calcium activity assay on FLIPR Tetra in HEK-Gqi5 cells stably expressing CCR2
// field semantics: pIC50 = negative decimal log of concentration (mol/L)

Look over these answered cases.
INSERT INTO results (molecule, measured_on, numeric_result) VALUES
  ('Cn1sc(=O)c2cc(S(=O)(=O)Nc3cccc4c3OCO4)ccc21', 'CCR2 (Homo sapiens, UniProt P41597)', 5.71),
  ('COc1ccccc1S(=O)(=O)Nc1ccc(Cl)cc1NS(=O)(=O)c1ccc2c(c1)c(=O)sn2C', 'CCR2 (Homo sapiens, UniProt P41597)', 6.40),
  ('Cn1sc(=O)c2cc(S(=O)(=O)Nc3ccc(Cl)cc3NS(=O)(=O)c3cccs3)ccc21', 'CCR2 (Homo sapiens, UniProt P41597)', 6.41),
  ('COc1ccc(S(=O)(=O)Nc2ccccc2NS(=O)(=O)c2ccc3c(c2)c(=O)sn3C)cc1', 'CCR2 (Homo sapiens, UniProt P41597)', 5.61),
  ('Cc1ccc(S(=O)(=O)Nc2ccc(Cl)cc2NS(=O)(=O)c2ccc3c(c2)c(=O)sn3C)cc1', 'CCR2 (Homo sapiens, UniProt P41597)', 6.17);

Note to self: pIC50 of `CC(C)c1ccc(NS(=O)(=O)c2ccc3c(c2)c(=O)sn3C)c(NS(=O)(=O)c2cccs2)c1` with CCR2 (Homo sapiens, UniProt P41597) was 6.05

Known value: CCR2 (Homo sapiens, UniProt P41597) pIC50 of the molecule `Cn1sc(=O)c2cc(S(=O)(=O)Nc3cccc4c3Oc3ccccc3O4)ccc21` equals 5.84

----------
# Lookup of reported CCR2 % ANTAG keyed by entry
- Measured on: CCR2 (Homo sapiens)
- Construct: expressed in transfected cells
- Assay protocol: CCR2 calcium activity assay on FLIPR Tetra in HEK-Gqi5 cells stably expressing CCR2
- Assay type: cell-based
Hi, when you answer, please include the unit after the number. Thanks!

INSERT INTO results (molecule, result) VALUES
  ('Cn1sc(=O)c2cc(S(=O)(=O)Nc3cc(Cl)ccc3NS(=O)(=O)c3ccc(Cl)c(C(F)(F)F)c3)ccc21', '88%'),
  ('Cn1sc(=O)c2cc(S(=O)(=O)Nc3ccccc3NS(=O)(=O)c3cc(C(F)(F)F)cc(C(F)(F)F)c3)ccc21', '94%'),
  ('Cn1sc(=O)c2cc(S(=O)(=O)N3CCC(NS(=O)(=O)c4cccs4)C3)ccc21 (centres unmarked)', '44%'),
  ('CC(C)c1ccc(S(=O)(=O)Nc2ccc(Cl)cc2NS(=O)(=O)c2ccc3c(c2)c(=O)sn3C)cc1', '94%'),
  ('Cn1sc(=O)c2cc(S(=O)(=O)Nc3ccccc3NS(=O)(=O)c3ccc(Cl)c(C(F)(F)F)c3)ccc21', '100%');

Entry `COc1cc(Cl)c(C)cc1NS(=O)(=O)c1ccc2c(c1)c(=O)sn2C` — recorded CCR2 % ANTAG = 0%

Sample `Cn1sc(=O)c2cc(S(=O)(=O)Nc3cc4ccccc4cc3NS(=O)(=O)c3cccs3)ccc21` ; CCR2 % ANTAG observed: 96%

----------
- Measured on: CCR2 (Homo sapiens)
- Assay protocol: CCR2 calcium activity assay on FLIPR Tetra in HEK-Gqi5 cells stably expressing CCR2
pIC50: −log10 of the molar value.
Classify by measured pIC50: T if it is equal to or exceeds 6, F if it is smaller.

Field: example entries. Status: answers known.
INSERT INTO measurements (smiles_input, qualitative_label) VALUES
  ('CN(C)c1ccc(S(=O)(=O)Nc2ccc(Cl)cc2NS(=O)(=O)c2ccc3c(c2)c(=O)sn3C)cc1', 'F'),
  ('Cn1sc(=O)c2cc(S(=O)(=O)Nc3ccccc3NS(=O)(=O)c3cc(Cl)c(Cl)s3)ccc21', 'T'),
  ('COC(=O)c1ccc(NS(=O)(=O)c2cccs2)c(NS(=O)(=O)c2ccc3c(c2)c(=O)sn3C)c1', 'F'),
  ('Cn1sc(=O)c2cc(S(=O)(=O)Nc3cccc(NS(=O)(=O)c4cccs4)c3)ccc21', 'F'),
  ('Cn1sc(=O)c2cc(S(=O)(=O)Nc3ccccc3NC(=O)Nc3cccs3)ccc21', 'F'),
  ('Cn1sc(=O)c2cc(S(=O)(=O)Nc3cccnc3NS(=O)(=O)c3cccs3)ccc21', 'F'),
  ('Cn1sc(=O)c2cc(S(=O)(=O)Nc3ccccc3NS(=O)(=O)c3ccc(C(F)(F)F)cc3)ccc21', 'T'),
  ('Cn1sc(=O)c2cc(S(=O)(=O)Nc3ccccc3NS(=O)(=O)c3ccc(Cl)c(Cl)c3)ccc21', 'T');

Query: I'd appreciate it if you could say whether `Cn1sc(=O)c2cc(S(=O)(=O)Nc3c(F)cccc3NS(=O)(=O)c3cccs3)ccc21` has pIC50 at least equal to 6.
Reply: T

Query: Determine whether this compound has pIC50 no lower than 6: `Cn1sc(=O)c2cc(S(=O)(=O)Nc3cc(Cl)ccc3NS(=O)(=O)c3cccs3)ccc21`
Reply: T

Query: pIC50 >= 6 for `Cn1sc(=O)c2cc(S(=O)(=O)Nc3ccccc3NS(=O)(=O)c3cccc(F)c3)ccc21` ?
Reply: F

Query: Reported pIC50 reaches at least 6 for `Cn1sc(=O)c2cc(S(=O)(=O)Nc3ccccc3NS(=O)(=O)c3ccccc3F)ccc21` ?
Reply: T

Query: Confirm if pIC50 reported for the compound `COc1ccc(S(=O)(=O)Nc2ccc(Cl)cc2NS(=O)(=O)c2ccc3c(c2)c(=O)sn3C)c(OC)c1` is 6 or above.
Reply: F

Query: Assess whether reported pIC50 for `Cn1sc(=O)c2cc(S(=O)(=O)Nc3ccccc3NS(=O)(=O)c3ccc(Cl)c(C(F)(F)F)c3)ccc21` sits at 6 or higher.
Reply: T

Query: Is reported pIC50 greater than or equal to 6 here: `Cn1sc(=O)c2cc(S(=O)(=O)Nc3cc(Cl)c(Cl)cc3Cl)ccc21`
Reply: F

Query: Check the entry `CC(C)n1sc(=O)c2cc(S(=O)(=O)Nc3ccccc3NS(=O)(=O)c3cccs3)ccc21` : does pIC50 equal or exceed 6?
Reply: F

----------
- Measured on: CCR2 (Homo sapiens, UniProt P41597)
- Construct: expressed in transfected cells
- Assay protocol: CCR2 calcium activity assay on FLIPR Tetra in HEK-Gqi5 cells stably expressing CCR2
- Assay type: cell-based
Measured CCR2 % ANTAG, listed per entry.
Number only, in %; omit the unit.

INSERT INTO results (compound, reported_endpoint, unit_name, numeric_result) VALUES
  ('COc1ccc(S(=O)(=O)Nc2ccc(Cl)cc2NS(=O)(=O)c2ccc3c(c2)c(=O)sn3C)cc1', 'CCR2 % ANTAG', '%', 78),
  ('CN(C)c1ccc(S(=O)(=O)Nc2ccc(Cl)cc2NS(=O)(=O)c2ccc3c(c2)c(=O)sn3C)cc1', 'CCR2 % ANTAG', '%', 64),
  ('Cn1sc(=O)c2cc(S(=O)(=O)NC(C)(C)CNS(=O)(=O)c3cccs3)ccc21', 'CCR2 % ANTAG', '%', 20),
  ('Cn1sc(=O)c2cc(S(=O)(=O)Nc3cc(Cl)cnc3C(=O)N3CCC(=O)CC3)ccc21', 'CCR2 % ANTAG', '%', 58),
  ('Cn1sc(=O)c2cc(S(=O)(=O)Nc3cccc4c3OC(F)(F)O4)ccc21', 'CCR2 % ANTAG', '%', 80),
  ('Cn1sc(=O)c2cc(S(=O)(=O)N[C@@H]3CCCC[C@H]3NC(=O)c3cccs3)ccc21 (relative stereo)', 'CCR2 % ANTAG', '%', 46),
  ('Cn1sc(=O)c2cc(S(=O)(=O)NCc3ccccc3NS(=O)(=O)c3cccs3)ccc21', 'CCR2 % ANTAG', '%', 56),
  ('CN(C)c1ccc(NS(=O)(=O)c2cccs2)c(NS(=O)(=O)c2ccc3c(c2)c(=O)sn3C)c1', 'CCR2 % ANTAG', '%', 35),
  ('Cn1sc(=O)c2cc(S(=O)(=O)Nc3ccccc3NS(=O)(=O)c3ccc(Cl)c(Cl)c3)ccc21', 'CCR2 % ANTAG', '%', 92),
  ('COc1cccc(NS(=O)(=O)c2ccc3c(c2)c(=O)sn3C)c1OC', 'CCR2 % ANTAG', '%', 55);

Lab book: CCR2 % ANTAG of `Cn1sc(=O)c2cc(S(=O)(=O)Nc3cc(Cl)c(Cl)cc3NS(=O)(=O)c3ccc(Cl)c(C(F)(F)F)c3)ccc21` noted as 84

The compound listed as `COc1ccc(S(=O)(=O)Nc2ccc(Cl)cc2NS(=O)(=O)c2ccc3c(c2)c(=O)sn3C)c(OC)c1` shows CCR2 % ANTAG equal to 95

----------
- Measured on: CCR2 (Homo sapiens)
- Assay protocol: CCR2 calcium activity assay on FLIPR Tetra in HEK-Gqi5 cells stably expressing CCR2
Measured pIC50 by item
Quick note: pIC50 means taking -log10 of the concentration in moles per liter.

Below: 3 compounds and their reported pIC50.
INSERT INTO results (compound, numeric_result) VALUES
  ('Cn1sc(=O)c2cc(S(=O)(=O)N[C@@H]3CCCC[C@@H]3NS(=O)(=O)c3ccc(Cl)c(C(F)(F)F)c3)ccc21 (relative stereo)', 5.91),
  ('Cn1sc(=O)c2cc(S(=O)(=O)Nc3ccccc3NS(=O)(=O)c3ccc(Cl)cc3)ccc21', 5.97),
  ('Cc1ccc(S(=O)(=O)Nc2cc(Cl)c(Cl)cc2NS(=O)(=O)c2ccc3c(c2)c(=O)sn3C)s1', 6.07);

Read the next record carefully.
Form: compound = `Cn1sc(=O)c2cc(S(=O)(=O)Nc3cc(C(F)(F)F)ccc3NS(=O)(=O)c3cccs3)ccc21` ; pIC50 = 6.15
